Ref: patent US12590071B2

molecular target: CYP2C9 (Homo sapiens); construct: human liver microsomes (0.25 mg/mL); from tissue; host or cells: human liver microsomes; assay: Inhibition of CYP coenzyme activity in human liver microsomes; type: in vitro ADME; settings: compound 10 PM (so in the source); human liver microsomes 0.25 mg/mL; substrate diclofenac; 15 minutes
Sequence (P11712 whole entry): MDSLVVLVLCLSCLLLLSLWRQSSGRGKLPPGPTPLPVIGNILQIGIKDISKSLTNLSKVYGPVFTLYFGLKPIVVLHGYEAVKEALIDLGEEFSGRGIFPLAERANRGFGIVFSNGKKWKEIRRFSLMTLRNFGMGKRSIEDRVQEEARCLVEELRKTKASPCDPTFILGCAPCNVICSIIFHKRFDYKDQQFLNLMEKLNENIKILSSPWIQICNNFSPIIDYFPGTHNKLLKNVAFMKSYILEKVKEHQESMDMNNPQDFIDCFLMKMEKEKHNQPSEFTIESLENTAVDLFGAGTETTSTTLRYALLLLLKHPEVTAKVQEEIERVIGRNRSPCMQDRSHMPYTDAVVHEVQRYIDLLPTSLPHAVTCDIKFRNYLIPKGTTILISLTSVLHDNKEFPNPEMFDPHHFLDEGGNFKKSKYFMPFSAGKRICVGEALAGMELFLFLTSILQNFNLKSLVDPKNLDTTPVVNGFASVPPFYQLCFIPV
readout kind: inhibition effects of CYP coenzyme activity, CYP2C9

[[record]]
compound = "N#CC(C#N)=NNc1cnc2[nH]ccc2c1 [Compound 72]"
study_system = "CYP2C9 (Homo sapiens)"
test_result = 88.7

[[record]]
compound = "N#CC(C#N)=NNc1ccc2nc(NC(=O)c3ncccc3O)sc2c1 [Compound 91]"
study_system = "CYP2C9 (Homo sapiens)"
test_result = 57

[[record]]
compound = "Cc1cncc(C(=O)Nc2nc3ccc(NN=C(C#N)C#N)cc3s2)c1 [Compound 90]"
study_system = "CYP2C9 (Homo sapiens)"
test_result = 47.4

[[record]]
compound = "N#CC(C#N)=NNc1ccc(-c2ncccn2)cc1 [Compound 1]"
study_system = "CYP2C9 (Homo sapiens)"
test_result = 63.2

[[record]]
compound = "Cc1cnc(-c2ccc(NN=C(C#N)C#N)cc2)nc1 [Compound 4]"
study_system = "CYP2C9 (Homo sapiens)"
test_result = 81.5

[[record]]
compound = "N#CC(C#N)=NNc1ccc(-n2cccn2)cc1 [Compound 35]"
study_system = "CYP2C9 (Homo sapiens)"
test_result = 81.3

[[record]]
compound = "N#CC(C#N)=NNc1ccc2nc(NC(=O)c3ccccc3O)sc2c1 [Compound 87]"
study_system = "CYP2C9 (Homo sapiens)"
test_result = 53.5

[[record]]
compound = "CN(N=C(C#N)C#N)c1ccc(-c2ncccn2)cc1 [Compound 45]"
study_system = "CYP2C9 (Homo sapiens)"
test_result = ">100"

[[record]]
compound = "N#CC(C#N)=NNc1cnc2[nH]cc(Cl)c2c1 [Compound 83]"
study_system = "CYP2C9 (Homo sapiens)"
test_result = 51

[[record]]
compound = "Cn1cc2c(-c3ccc(NN=C(C#N)C#N)cc3)cccc2n1 [Compound 55]"
study_system = "CYP2C9 (Homo sapiens)"
test_result = 59.5


* * *

Property: clearance; scope: individual compounds
Assay: Pharmacokinetics in SD rat (plasma PK parameters)
Type: in vivo
Settings: SD rat plasma, IV 1 mg/kg
Description: Specifically, an SD rat of 7 to 8 weeks of age (Core Tech, Hana Trading Co., Ltd.) having a body weight of about 250 g to 300 g was purchased, and was managed in a simple breeding room for small animals set to a temperature of 22° C.±2° C., a relative humidity of 50%±5%, a lighting time of 12 hours (light up at 8:00 A.M., turn off at 8:00 P.M.), and an illuminance of 150 lux to 300 lux. […] The obtained supernatant was analyzed by LC-MS/MS. […]
readout kind: clearance (mL/min/kg)

[[record]]
compound = "N#CC(C#N)=NNc1ccc(-c2ncccn2)cc1 [Compound 1]"
value_units = "mL/min/kg"
test_result = 11.5

[[record]]
compound = "N#CC(C#N)=NNc1ccc(-c2cnc3ccnn3c2)cc1 [Compound 50]"
value_units = "mL/min/kg"
test_result = 2

[[record]]
compound = "N#CC(C#N)=NNc1ccc(-c2ncc(F)cn2)cc1 [Compound 2]"
value_units = "mL/min/kg"
test_result = 2.4

[[record]]
compound = "Cc1cnc(C(=O)Nc2nc3ccc(NN=C(C#N)C#N)cc3s2)cn1 [Compound 93]"
value_units = "mL/min/kg"
test_result = 2.7


* * *

Test: Pharmacokinetics in SD rat (plasma PK parameters)
Format: in vivo
Settings: SD rat, PO 10 mg/kg versus IV
Description: Specifically, an SD rat of 7 to 8 weeks of age (Core Tech, Hana Trading Co., Ltd.) having a body weight of about 250 g to 300 g was purchased, and was managed in a simple breeding room for small animals set to a temperature of 22° C.±2° C., a relative humidity of 50%±5%, a lighting time of 12 hours (light up at 8:00 A.M., turn off at 8:00 P.M.), and an illuminance of 150 lux to 300 lux. […] The obtained supernatant was analyzed by LC-MS/MS. […]
Property: F; scope: individual compounds
readout kind: F (%)

[[record]]
compound = "N#CC(C#N)=NNc1ccc(-c2ncccn2)cc1 [Compound 1]"
value_units = "%"
test_result = 32

[[record]]
compound = "Cc1ncc(-c2ccc(NN=C(C#N)C#N)cc2)s1 [Compound 11]"
value_units = "%"
test_result = 32.5

[[record]]
compound = "N#CC(C#N)=NNc1ccc(-c2ncc(F)cn2)cc1 [Compound 2]"
value_units = "%"
test_result = 27.1

[[record]]
compound = "Cn1cc2cc(-c3ccc(NN=C(C#N)C#N)cc3)ccc2n1 [Compound 56]"
value_units = "%"
test_result = 89.2

[[record]]
compound = "N#CC(C#N)=NNc1ccc(-c2cnc3ccnn3c2)cc1 [Compound 50]"
value_units = "%"
test_result = 8.3

[[record]]
compound = "Cc1cnc(C(=O)Nc2nc3ccc(NN=C(C#N)C#N)cc3s2)cn1 [Compound 93]"
value_units = "%"
test_result = 22.9


* * *

Property: liver microsomal stability, Mouse (%); scope: individual compounds
assay: Liver microsomal stability (mouse); format: in vitro ADME; settings: amount of substrate remaining; 1 μM, 0.25 mg/mL microsomes, 37° C., 30 minutes
readout kind: liver microsomal stability, Mouse (%)

[[record]]
compound = "N#CC(C#N)=NNc1ccc(-c2ncccn2)cc1 [Compound 1]"
qualifier_symbol = "="
test_result = 86.1

[[record]]
compound = "N#CC(C#N)=NNc1cnc2[nH]cc(Cl)c2c1 [Compound 83]"
qualifier_symbol = "="
test_result = 11

[[record]]
compound = "Cn1ncc2ccc(NN=C(C#N)C#N)cc21 [Compound 63]"
qualifier_symbol = "="
test_result = 9.5

[[record]]
compound = "N#CC(C#N)=NNc1ccc(-n2cccn2)cc1 [Compound 35]"
qualifier_symbol = "="
test_result = 10.7

[[record]]
compound = "Cc1ncc(-c2ccc(NN=C(C#N)C#N)cc2)s1 [Compound 11]"
qualifier_symbol = "="
test_result = 65.6

[[record]]
compound = "Cc1cncc(-c2nc3ccc(NN=C(C#N)C#N)cc3s2)c1 [Compound 110]"
qualifier_symbol = "="
test_result = 70.8

[[record]]
compound = "Cn1cc2c(-c3ccc(NN=C(C#N)C#N)cc3)cccc2n1 [Compound 55]"
qualifier_symbol = "="
test_result = 71.2

[[record]]
compound = "N#CC(C#N)=NNc1ccc2scnc2c1 [Compound 61]"
qualifier_symbol = "="
test_result = 33.5

[[record]]
compound = "Cc1cnc(-c2ccc(NN=C(C#N)C#N)cc2)nc1 [Compound 4]"
qualifier_symbol = "="
test_result = 35.6

[[record]]
compound = "N#CC(C#N)=NNc1ccc(-c2cnc3ccnn3c2)cc1 [Compound 50]"
qualifier_symbol = "="
test_result = 89.5

[[record]]
compound = "Cc1ccnc(-c2ccc(NN=C(C#N)C#N)c(F)c2)n1 [Compound 37]"
qualifier_symbol = "="
test_result = 32.7

[[record]]
compound = "N#CC(C#N)=NNc1cnc2[nH]ccc2c1 [Compound 72]"
qualifier_symbol = "="
test_result = 58.6

[[record]]
compound = "N#CC(C#N)=NNc1ccc2nc(NC(=O)c3cnccn3)sc2c1 [Compound 92]"
qualifier_symbol = "="
test_result = 51.9

[[record]]
compound = "N#CC(C#N)=NNc1ccc(-c2ncc(F)cn2)cc1 [Compound 2]"
qualifier_symbol = "="
test_result = 6.4

[[record]]
compound = "Cc1cnn(-c2ccc(NN=C(C#N)C#N)cc2)c1 [Compound 36]"
qualifier_symbol = "="
test_result = 37.9

[[record]]
compound = "N#CC(C#N)=NNc1ccc2nc(NC(=O)c3ccccc3O)sc2c1 [Compound 87]"
qualifier_symbol = "="
test_result = 83.1

[[record]]
compound = "N#CC(C#N)=NNc1ccc2[nH]ncc2c1 [Compound 69]"
qualifier_symbol = "="
test_result = 34.2

[[record]]
compound = "Cc1cnc(C(=O)Nc2nc3ccc(NN=C(C#N)C#N)cc3s2)cn1 [Compound 93]"
qualifier_symbol = "="
test_result = 37.3

[[record]]
compound = "COc1cc(-c2nccc(C)n2)ccc1NN=C(C#N)C#N [Compound 42]"
qualifier_symbol = "="
test_result = 47.9

[[record]]
compound = "Cc1ncsc1-c1ccc(NN=C(C#N)C#N)cc1 [Compound 12]"
qualifier_symbol = "="
test_result = 45.2

[[record]]
compound = "N#CC(C#N)=NNc1ccc2[nH]c(=O)sc2c1 [Compound 134]"
qualifier_symbol = ">"
test_result = 100

[[record]]
compound = "N#CC(C#N)=NNc1ccc2cn[nH]c2c1 [Compound 70]"
qualifier_symbol = "="
test_result = 55.8

[[record]]
compound = "COc1cnc(-c2ccc(NN=C(C#N)C#N)cc2)nc1 [Compound 8]"
qualifier_symbol = "="
test_result = 83.7

[[record]]
compound = "CN(C)c1ccc(-c2ccc(NN=C(C#N)C#N)cc2)cc1 [Compound 151]"
qualifier_symbol = "="
test_result = 94.6

